Target: HLA-A*01:01 (human)
Assay: UV peptide exchange; HLA class I ELISA
Conditions: remark: other sources report otherwise
Recorded exchange rate with Pos for the following binders
Attribute Measured: exchange rate with Pos

| Binder | Endpoint Result |
| --- | --- |
| RAVRRMNTF (here or on the partner: biotinylated heavy chain) [P17 9-mer … (MSMB-NOCA4 fusion)] | 4.9% |
| YQFTFDLLI (here or on the partner: biotinylated heavy chain) [P48 9-mer … (AR.p.H875Y)] | 4.3% |
| CPMSRLRLA (here or on the partner: biotinylated heavy chain) [P46 9-mer … (TP53 R213D frameshift)] | 2.4% |
| RVGNCKHLK (here or on the partner: biotinylated heavy chain) [P82 9-mer … (AR-V7)] | 1.5% |
| IPVLTRWPL (here or on the partner: biotinylated heavy chain) [P19 9-mer … (TMEM222-LOC644061 fusion)] | 5.2% |
| LMAQRLLLR (here or on the partner: biotinylated heavy chain) [P97 9-mer … (FOXRED2-TXN2 fusion)] | 2.5% |

All figures here come from patent US20230029453A1.
